meta.source: the NIST ThermoML archive (doi:10.1021/acs.jced.7b00445)

# assay_name: refractive index (Na D-line) (dimensionless)
# test_settings: 298.15 K; 101.33 kPa; Liquid; Standard Abbe refractometry
What refractive index was measured for each of the following?
Kindly provide the number alone.

Endpoint output: refractive index of "CCCO" . Value?
1.3842

Endpoint output: refractive index of "CCO" . Value?
1.3596

Endpoint output: refractive index of CCC(C)OC(C)=O (centres undefined) [1-methylpropyl ethanoate] . Value?
1.3872

Endpoint output: refractive index of "CC(C)O" . Value?
1.3757

---

# test_settings: 298.15 K; 101.33 kPa; Liquid; Pycnometric method
What mass density was measured for each of the following?
Just the number please, in kg/m3, no unit attached.

Endpoint output: mass density of "CCCO" . Value?
802

Endpoint output: mass density of CCC(C)OC(C)=O (centres undefined) [1-methylpropyl ethanoate] . Value?
867

Endpoint output: mass density of "CCO" . Value?
786

Endpoint output: mass density of "CC(C)O" . Value?
782

---

What Boiling temperature at pressure P was measured for each of the following?
# assay_name: Boiling temperature at pressure P
# test_settings: 101.3 kPa; Liquid; Ebulliometric method (Recirculating still)
Just the number please, in °C, no unit attached.

Endpoint output: Boiling temperature at pressure P of "CCCO" . Value?
97.17

Endpoint output: Boiling temperature at pressure P of "CC(C)O" . Value?
82.36

Endpoint output: Boiling temperature at pressure P of "CCO" . Value?
78.27

Endpoint output: Boiling temperature at pressure P of CCC(C)OC(C)=O (centres undefined) [1-methylpropyl ethanoate] . Value?
111.97
